Here the recorded GI50 is given for each entry.
system: Malme-3M; test: NCI tumour cell line growth inhibition, 48 h
The source made the active and inactive calls. No stated cut-off is given here; in the data, active = GI50 up to about 1.1 µM and inactive = higher.

Example entries and their recorded answers appear below.
molecule	measured_value
CCOC(=O)CC[C@H](N)C(=O)N[C@H](Cc1ccc(N(CCCl)CCCl)cc1)C(=O)OCC	4.94 µM (inactive)
Oc1cc(CN2CCOCCOCCOCCOCC2)c(O)cc1CN1CCOCCOCCOCCOCC1	> 10 µM (inactive)

Item CCCCN(CCCC)CCCCNc1c(C)cnc2cc(Cl)ccc12 ; assay system Malme-3M; GI50 reported as 21 µM (inactive)

Item CCCCCCCCCCCCCCCCP(=O)(O)OCC(N)C(=O)O (stereo not given) ; assay system Malme-3M; GI50 reported as > 100 µM (inactive)

Item C#CC1(OC(C)=O)CCC2C3CC=C4C=C(OC(C)=O)CCC4(C)C3CCC21C (stereo not given) ; assay system Malme-3M; GI50 reported as 18 µM (inactive)

Item CCOC(=O)c1cccc(/N=N/c2nc[nH]c2/C=C/C(=O)OC)c1 ; assay system Malme-3M; GI50 reported as 8.71 µM (inactive)

Item C=C1CC2C[C@H](OS(=O)(=O)c3ccc(C)cc3)C(C1)N2C (stereo not given in full) ; assay system Malme-3M; GI50 reported as > 100 µM (inactive)

Item CC(C)(C)c1cc(C2NC(=O)NC2=O)cc(C(C)(C)C)c1O (stereo not given) ; assay system Malme-3M; GI50 reported as 80 µM (inactive)

Item O=C1C(/N=N/c2ccc(-c3nc4ccccc4o3)cc2)NC(=S)N1c1ccccc1 (stereo not given) ; assay system Malme-3M; GI50 reported as > 100 µM (inactive)

Item CC1=C[C@H](C[C@]2(C)c3c(c4c(C)cccc4oc3=O)O[C@@H]2C)OC1=O ; assay system Malme-3M; GI50 reported as 29.9 µM (inactive)

Item CCOC(=O)Oc1ccc2c(c1)c(=O)c1c(NCCCN(CC)CC)ccc3nnn2c31 ; assay system Malme-3M; GI50 reported as 13.4 µM (inactive)

Item O=C1/C(=C/c2ccc(C(=O)O)cc2)CNC/C1=C\c1ccc(C(=O)O)cc1 ; assay system Malme-3M; GI50 reported as > 100 µM (inactive)

Item OC1(c2ccccc2)CC2CCC(C1)N2CCCC(O)(c1ccccc1)c1ccccc1 (stereo not given) ; assay system Malme-3M; GI50 reported as 15.9 µM (inactive)

Item CC(C)=CC(C)C(C(O)CCC1(c2ccoc2)OCCO1)S(=O)(=O)c1ccccc1 (stereo not given) ; assay system Malme-3M; GI50 reported as > 100 µM (inactive)

Item O=C1OC(c2ccccc2)=N/C1=C/NC(CO)C(=O)O (stereo not given) ; assay system Malme-3M; GI50 reported as > 100 µM (inactive)

Item CN(C)N1C(=O)SCC(c2ccccc2)(c2ccccc2)C1=O ; assay system Malme-3M; GI50 reported as > 100 µM (inactive)

----------
system: MCF7; assay: NCI tumour cell line growth inhibition, 48 h
Activity calls are given as the source filed them. Rule as the data show it: active = GI50 up to about 1.1 µM and inactive = higher.
Log the outcome using a class from y for active, n for inactive

Worked examples follow.
compound	system_tested	label_value
C=C1CC2C[C@H](OS(=O)(=O)c3ccc(C)cc3)C(C1)N2C (some centres not stated)	MCF7	n
CC1C(OC2O[C@@H]3O[C@@]4(C)CC[C@H]5[C@H](C)CC[C@@H](C2C)[C@@]35O4)O[C@@H]2O[C@@]3(C)CC[C@H]4[C@H](C)CC[C@@H]1[C@@]24O3 (some centres not stated)	MCF7	n

# fetch the recorded call for CC[N+]1(C)CCC(O)(c2ccc(C)cc2)C(C(=O)c2ccc(C)cc2)C1 (configuration not stated) here
n

# fetch the recorded call for Cc1nc2[nH]ccn2c(=O)c1CCO here
n

# fetch the recorded call for CCN(CC)CCCOC(=O)/C=C/c1c(C)[nH]c(=O)[nH]c1=O here
n

# fetch the recorded call for O=C(Nc1nnc(-c2c(Cl)c(Cl)c(Cl)c(Cl)c2-c2nc3cc(C(=O)c4ccccc4)ccc3[nH]2)o1)c1ccc(Cl)cc1 here
n

# fetch the recorded call for CC(C)(C)OC(=O)N(CCNS(=O)(=O)c1cccc2cnccc12)CCC(=O)ON1C(=O)CCC1=O here
n

# fetch the recorded call for C#CC1(OC(C)=O)CCC2C3CC=C4C=C(OC(C)=O)CCC4(C)C3CCC21C (configuration not stated) here
n

# fetch the recorded call for CNNC1=NS(=O)(=O)c2cc(C#N)c(Cl)cc2S1 here
y

# fetch the recorded call for COc1ccc2c(c1)CCN1CCc3ccccc3CC21 (configuration not stated) here
n

# fetch the recorded call for COC(=O)C(=O)C(C(=O)OC)C(=O)C(=O)Nc1c(Cl)cc([N+](=O)[O-])cc1Cl (configuration not stated) here
n

# fetch the recorded call for CC(=O)N(CN1C(=O)CCC1C(=O)O)c1ccc(C)cc1 (configuration not stated) here
n
